Source of measurements: paper PMC7681098

biological target: c-Src (Homo sapiens)
Sequence (P12931 whole entry): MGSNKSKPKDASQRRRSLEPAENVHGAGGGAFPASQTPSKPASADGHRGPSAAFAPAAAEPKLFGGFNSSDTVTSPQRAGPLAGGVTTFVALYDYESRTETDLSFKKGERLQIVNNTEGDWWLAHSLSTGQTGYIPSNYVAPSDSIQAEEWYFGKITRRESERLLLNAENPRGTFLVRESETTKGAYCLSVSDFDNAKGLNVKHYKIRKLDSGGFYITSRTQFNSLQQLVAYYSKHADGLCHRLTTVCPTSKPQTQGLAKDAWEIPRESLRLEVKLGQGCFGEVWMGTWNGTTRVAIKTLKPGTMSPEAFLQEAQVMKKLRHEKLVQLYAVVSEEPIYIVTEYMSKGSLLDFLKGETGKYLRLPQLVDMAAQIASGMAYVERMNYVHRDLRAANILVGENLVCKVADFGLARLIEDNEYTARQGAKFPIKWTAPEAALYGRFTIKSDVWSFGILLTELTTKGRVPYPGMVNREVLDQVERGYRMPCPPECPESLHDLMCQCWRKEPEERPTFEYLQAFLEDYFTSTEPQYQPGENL
RECORDED ENDPOINT: pIC50
Scale note: pIC50 = -log10(concentration in M).

Short answer please: pIC50, c-Src (Homo sapiens), entry `CN1CCN(Cc2ccc(NC(=O)c3n[nH]cc3Nc3ncnc4[nH]ccc34)cc2)CC1`
7.14

* * *

target: ERK1 (Homo sapiens, UniProt P27361); construct: purchased Reaction Biology Corporation (PA, USA); assay: Kinase inhibition assay (Reaction Biology); format: biochemical; conditions: 10 μM ATP, 10-dose IC50 mode
Sequence (P27361 whole entry): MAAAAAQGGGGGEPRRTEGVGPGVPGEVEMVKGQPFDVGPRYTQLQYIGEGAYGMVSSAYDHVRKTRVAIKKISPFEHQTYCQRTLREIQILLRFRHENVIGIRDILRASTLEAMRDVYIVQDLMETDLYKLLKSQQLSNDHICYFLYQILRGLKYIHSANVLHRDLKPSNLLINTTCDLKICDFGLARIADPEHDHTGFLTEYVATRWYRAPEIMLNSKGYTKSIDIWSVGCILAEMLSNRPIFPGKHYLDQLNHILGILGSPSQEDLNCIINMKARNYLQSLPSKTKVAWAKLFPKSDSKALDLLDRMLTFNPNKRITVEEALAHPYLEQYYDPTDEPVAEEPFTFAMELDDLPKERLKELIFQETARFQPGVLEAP
RECORDED ENDPOINT: IC50 (µM)
Use µM as the unit, but write only the number.

Give the measured IC50 of O=C(Nc1ccc2[nH]nc(-c3ccncc3)c2c1)[C@@H]1CCN(CC(=O)N2CCN(c3ccc(-c4ncccn4)cc3)CC2)C1 [SCH772984, reference compound] .
0.0049

// below: IC50 requested for another compound
Tell me the measured IC50 of CN1CCN(Cc2ccc(NC(=O)c3n[nH]cc3Nc3ncnc4[nH]ccc34)cc2)CC1 [LT-171-861] , please.
1.06
